protocol text: Inhibition of P-gp in human K562/A02 cells assessed as adriamycin IC50 at 2 ug/ml
pIC50: −log10 of the molar value.
value type: pIC50

Cc1nc2cc(F)ccc2[nH]c1=O 4.89
Cc1ccc2[nH]c(=O)c(C)nc2c1 4.70

* * *

protocol text: Inhibition of P-gp in human K562 cells assessed as adriamycin IC50 at 4 ug/ml
pIC50: −log10 of the molar value.
value type: pIC50

Cc1nc2cc(F)ccc2[nH]c1=O 6.17
Cc1ccc2[nH]c(=O)c(C)nc2c1 6.13

* * *

protocol text: Inhibition of P-gp in human K562/A02 cells assessed as adriamycin IC50 at 6 ug/ml
value type: IC50 (µM)

Cc1ccc2[nH]c(=O)c(C)nc2c1 10.5
Cc1nc2cc(F)ccc2[nH]c1=O 7.52

Reference source for all entries: BindingDB's records for PubMed 34998058
